- System name: EPHB4 (human) (UniProt P54760)
- Sequence (P54760 whole entry, looked up): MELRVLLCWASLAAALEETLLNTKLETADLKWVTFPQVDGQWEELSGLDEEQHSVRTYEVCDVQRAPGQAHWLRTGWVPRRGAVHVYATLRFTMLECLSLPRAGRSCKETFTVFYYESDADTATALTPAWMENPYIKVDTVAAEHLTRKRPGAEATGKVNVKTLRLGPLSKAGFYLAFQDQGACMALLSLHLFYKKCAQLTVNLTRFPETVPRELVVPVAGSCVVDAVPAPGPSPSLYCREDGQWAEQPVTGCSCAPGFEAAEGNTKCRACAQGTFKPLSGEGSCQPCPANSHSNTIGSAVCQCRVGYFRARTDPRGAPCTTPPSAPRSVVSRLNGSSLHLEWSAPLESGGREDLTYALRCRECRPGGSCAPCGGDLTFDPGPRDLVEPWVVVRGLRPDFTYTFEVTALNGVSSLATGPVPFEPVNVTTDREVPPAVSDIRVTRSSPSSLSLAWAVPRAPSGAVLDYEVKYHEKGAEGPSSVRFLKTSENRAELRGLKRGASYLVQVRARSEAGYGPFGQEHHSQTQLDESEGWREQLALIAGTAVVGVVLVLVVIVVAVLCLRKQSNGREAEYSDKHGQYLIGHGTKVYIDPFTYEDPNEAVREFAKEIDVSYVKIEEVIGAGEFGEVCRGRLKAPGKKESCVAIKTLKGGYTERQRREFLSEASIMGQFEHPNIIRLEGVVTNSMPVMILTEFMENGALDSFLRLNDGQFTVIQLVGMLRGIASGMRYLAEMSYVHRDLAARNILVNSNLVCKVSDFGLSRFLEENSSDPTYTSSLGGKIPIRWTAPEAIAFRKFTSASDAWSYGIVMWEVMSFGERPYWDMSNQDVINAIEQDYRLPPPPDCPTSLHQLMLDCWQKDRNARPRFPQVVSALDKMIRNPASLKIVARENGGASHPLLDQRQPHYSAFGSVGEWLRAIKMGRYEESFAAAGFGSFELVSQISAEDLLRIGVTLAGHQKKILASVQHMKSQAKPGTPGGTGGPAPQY
- Assay comment: Free Choice Kinase Assay Projects, Flashplate
- Setup conditions: compound 10.0 µM; ATP 1 µM
Result type: residual activity (%)
Quick reminder: number only, in %, skip the unit.

Look up residual activity of CSc1ccccc1CSc1nc(-c2ccncc2)c(-c2ccc(F)cc2)[nH]1 and report it.
52

Look up residual activity of CSc1ccc(CSc2nc(-c3ccncc3)c(-c3ccc(Br)cc3)[nH]2)cc1 and report it.
56

Look up residual activity of CC(Nc1cc(-c2nc(SCc3ccccc3)[nH]c2-c2ccc(F)cc2)ccn1)c1ccccc1 (stereo not given) and report it.
31

Look up residual activity of Fc1ccc(-c2[nH]c(CCc3ccccc3)nc2-c2ccncc2)cc1 and report it.
13

Look up residual activity of On1c(CCc2ccccc2)nc(-c2ccncc2)c1-c1ccc(F)cc1 and report it.
32

Look up residual activity of Fc1ccc(-c2[nH]c(SCc3ccccc3)nc2-c2ccncc2)cc1 and report it.
49

Look up residual activity of CSc1nc(-c2ccnc(NC(=O)C3CC3)c2)c(-c2ccc(F)cc2)n1C and report it.
9

Look up residual activity of N#CCSc1nc(-c2ccncc2)c(-c2ccc(F)cc2)[nH]1 and report it.
18

Look up residual activity of CSc1nc(-c2ccnc(F)c2)c(-c2ccc(F)cc2)[nH]1 and report it.
61

Look up residual activity of Fc1ccc(-c2[nH]c(SCC3CCCCC3)nc2-c2ccncc2)cc1 and report it.
38

Look up residual activity of Fc1ccc(-c2[nH]c(SCCc3ccccc3)nc2-c2ccncc2)cc1 and report it.
48

Look up residual activity of CSc1ccc(CSc2nc(-c3ccncc3)c(-c3ccc(F)cc3)[nH]2)cc1 and report it.
40

Look up residual activity of Fc1ccc(-c2[nH]c(SCc3cccc4ccccc34)nc2-c2ccncc2)cc1 and report it.
21

Look up residual activity of COc1ccc(C(=O)Nc2cc(-c3nc(SC)n(C)c3-c3ccc(F)cc3)ccn2)cc1 and report it.
33

Look up residual activity of CSc1nc(-c2ccnc(N(C(=O)C3CC3)C(=O)C3CC3)c2)c(-c2ccc(F)cc2)n1C and report it.
21

Look up residual activity of Fc1ccc(-c2[nH]c(SCc3ccccc3)nc2-c2ccnc(F)c2)cc1 and report it.
77

Look up residual activity of Oc1ccc(CSc2nc(-c3ccncc3)c(-c3ccc(F)cc3)[nH]2)cc1 and report it.
42

Look up residual activity of Fc1ccc(-c2[nH]c(/C=C/c3ccccc3)nc2-c2ccncc2)cc1 and report it.
21

Look up residual activity of Fc1ccc(-c2[nH]c(SCCCc3ccccc3)nc2-c2ccncc2)cc1 and report it.
55

Look up residual activity of Oc1cccc(CSc2nc(-c3ccncc3)c(-c3ccc(F)cc3)[nH]2)c1 and report it.
35

Look up residual activity of On1c(/C=C/c2ccccc2)nc(-c2ccncc2)c1-c1ccc(F)cc1 and report it.
19

Look up residual activity of Fc1ccc(-c2[nH]c(SCc3ccccc3)nc2-c2ccnc(Cl)c2)cc1 and report it.
42

Look up residual activity of CSc1nc(-c2ccnc(NC(C)=O)c2)c(-c2ccc(F)cc2)n1C and report it.
32

Look up residual activity of Oc1ccccc1CSc1nc(-c2ccncc2)c(-c2ccc(F)cc2)[nH]1 and report it.
44

Look up residual activity of CSc1nc(-c2ccnc(NC(=O)C3CCCC3)c2)c(-c2ccc(F)cc2)n1C and report it.
39
